# Tested on: RBL-2H3
# Assay Method Text: Inhibition of beta-hexosaminidase in anti-DNP IgE sensitized rat RBL2H3 cells at 100 uM after 10 mins
# Assay type: functional
# Protocol Conditions: RBL-2H3, 10 min
Readout Label: inhibition at 100 µM (%)
Kindly answer with a numeric value in %, unit omitted.

Please review the following examples before continuing.
Molecule: O=Cc1ccc(CO)[nH]1
Measured Number: 8.5

Molecule: CCCCOC(=O)c1cc2c([nH]c3ccccc32)c([C@@H](O)CO)n1
Measured Number: 11.2

Molecule: COc1cc(C(C)=O)ccc1O
Measured Number: 2.3

Molecule: COc1cc(C(=O)O)ccc1O
Measured Number: 8.4

Molecule: COc1cc(C=O)ccc1O
Measured Number: 5.9

Prompt: Quick one: give measured inhibition at 100 µM for CCC(O)c1cc(OC)c2c(c1)OCO2 (stereo unspecified)
Completion: 1.2

Prompt: Quick one: give measured inhibition at 100 µM for COc1ccc(CCC(=O)O)cc1OC
Completion: 2.3

Prompt: Quick one: give measured inhibition at 100 µM for COC(=O)c1cc2c([nH]c3ccccc32)c([C@@H](O)CO)n1
Completion: 89.2

Prompt: Quick one: give measured inhibition at 100 µM for C[C@H](O)c1nc(C(=O)O)cc2c1[nH]c1ccccc12
Completion: 5.9

Prompt: Quick one: give measured inhibition at 100 µM for O=Cc1ccc(CO)o1
Completion: 3.4

Prompt: Quick one: give measured inhibition at 100 µM for O=C(O)c1cc2c([nH]c3ccccc32)c([C@@H](O)CO)n1
Completion: 1.2

###

# Test system: RBL-2H3
# Assay Method Text: Inhibition of beta-hexosaminidase in anti-DNP IgE sensitized rat RBL2H3 cells after 10 mins
# Format: functional, cell-based
# Protocol Conditions: RBL-2H3, 10 min
Structures can show the parent of a compound that is named as a salt.
# Lookup of reported IC50 keyed by entry
Kindly answer with a numeric value in µM, unit omitted.

Compound: CN1CCC(=C2c3ccccc3CC(=O)c3sccc32)CC1 [KETOTIFEN FUMARATE]
Measured Number: 220

Prompt: Quick one: give measured IC50 for COC(=O)c1cc2c([nH]c3ccccc32)c([C@@H](O)CO)n1
Completion: 62

Prompt: Quick one: give measured IC50 for COc1ccc(/C=C/C(=O)Nc2ccccc2C(=O)O)cc1OC
Completion: 490
